Molecular target: T1, A1 domain of vWF (UniProt P04275 1261-1468, limits assumed)
T1 construct: domain: A1 domain; also called vWF A1 domain
Assay: BIAcore initial binding rate, vWF A1 domain on sensor-chip, stored sample
endpoint: % activity after 4 wks at 37° C. (initial binding rate against time zero) (%)

SEQ ID NO: 2 D105S (VHH) VHH: EVQLVESGGGLVQPGGSLRLSCAASGRTFSYNPMGWFRQAPGKGRELVAAISRTGGSTYYPDSVEGRFTISRDNAKRMVYLQMNSLRAEDTAVYYCAAAGVRAESGRVRTLPSEYTFWGQGTQVTVSS	93.7
SEQ ID NO: 2 S63G (VHH) VHH: EVQLVESGGGLVQPGGSLRLSCAASGRTFSYNPMGWFRQAPGKGRELVAAISRTGGSTYYPDGVEGRFTISRDNAKRMVYLQMNSLRAEDTAVYYCAAAGVRAEDGRVRTLPSEYTFWGQGTQVTVSS	95.5
SEQ ID NO: 2 D62E (VHH) VHH: EVQLVESGGGLVQPGGSLRLSCAASGRTFSYNPMGWFRQAPGKGRELVAAISRTGGSTYYPESVEGRFTISRDNAKRMVYLQMNSLRAEDTAVYYCAAAGVRAEDGRVRTLPSEYTFWGQGTQVTVSS	89.6

Source of measurements: patent US20110183861A1
